Entries annotated with measured pEC50
ASSAY SYSTEM: ATP-dependent translocase ABCB1 (Homo sapiens)
Sequence (P08183 whole entry): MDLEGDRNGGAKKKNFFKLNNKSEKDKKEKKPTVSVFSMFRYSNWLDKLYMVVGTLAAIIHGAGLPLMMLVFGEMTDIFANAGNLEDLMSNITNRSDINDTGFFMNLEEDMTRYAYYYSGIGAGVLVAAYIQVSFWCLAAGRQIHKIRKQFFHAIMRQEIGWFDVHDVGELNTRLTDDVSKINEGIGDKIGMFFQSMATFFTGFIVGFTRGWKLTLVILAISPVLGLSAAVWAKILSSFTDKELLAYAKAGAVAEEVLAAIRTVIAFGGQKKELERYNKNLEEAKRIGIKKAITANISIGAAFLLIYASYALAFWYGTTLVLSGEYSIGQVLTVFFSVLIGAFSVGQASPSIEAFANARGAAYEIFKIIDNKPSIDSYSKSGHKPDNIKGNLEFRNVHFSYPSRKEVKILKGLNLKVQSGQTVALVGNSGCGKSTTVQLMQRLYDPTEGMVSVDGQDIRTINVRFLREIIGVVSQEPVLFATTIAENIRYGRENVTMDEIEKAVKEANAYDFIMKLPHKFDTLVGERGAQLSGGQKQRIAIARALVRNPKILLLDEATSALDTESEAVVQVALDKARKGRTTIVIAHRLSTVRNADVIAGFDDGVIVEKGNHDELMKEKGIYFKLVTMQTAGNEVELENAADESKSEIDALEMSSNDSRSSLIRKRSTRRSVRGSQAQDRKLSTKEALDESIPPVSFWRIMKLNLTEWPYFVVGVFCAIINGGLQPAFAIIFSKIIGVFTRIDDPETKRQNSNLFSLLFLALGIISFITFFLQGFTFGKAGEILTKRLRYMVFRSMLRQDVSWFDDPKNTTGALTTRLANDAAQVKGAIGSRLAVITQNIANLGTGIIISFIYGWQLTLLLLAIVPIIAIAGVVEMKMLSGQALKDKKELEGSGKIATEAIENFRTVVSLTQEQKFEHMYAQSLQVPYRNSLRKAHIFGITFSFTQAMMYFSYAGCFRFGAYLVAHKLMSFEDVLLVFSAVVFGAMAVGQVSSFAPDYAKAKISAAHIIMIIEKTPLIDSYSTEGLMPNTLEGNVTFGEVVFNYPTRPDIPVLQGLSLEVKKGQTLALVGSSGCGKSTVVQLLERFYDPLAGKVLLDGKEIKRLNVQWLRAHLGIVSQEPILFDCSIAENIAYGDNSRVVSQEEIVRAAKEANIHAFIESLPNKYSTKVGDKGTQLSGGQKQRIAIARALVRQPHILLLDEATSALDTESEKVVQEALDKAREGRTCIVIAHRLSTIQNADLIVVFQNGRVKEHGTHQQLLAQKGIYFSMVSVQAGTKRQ
ASSAY EXPLANATION: Inhibition of P-glycoprotein expressed in MDR CCRF vcr1000 cells by daunorubicin efflux assay
pEC50 here is simply -log10 of the concentration when that concentration is written in mol/L.

Below: 8 compounds and their reported pEC50.
COMPOUND | pEC50
COC(=O)c1ccc(NCC(O)COc2ccccc2C(=O)CCc2ccccc2)cc1 (stereo not given) | 5.81
O=C(CCc1ccccc1)c1cccc(OCC(O)CNCCC(c2ccccc2)c2ccccc2)c1 (stereo not given) | 6.72
CCC(=O)N(Cc1ccccc1)CC(O)COc1ccccc1C(=O)CCc1ccccc1 (stereo not given) | 5.78
O=C(CCc1ccccc1)c1ccccc1OCC(O)CN1CCC(Cc2ccccc2)CC1 (stereo not given) | 6.59
O=C(CCc1ccccc1)c1cccc(OCC(O)CN2CCOCC2)c1 (stereo not given) | 5.46
CC(=O)c1c(C)cc(C)c(CSc2nc3ccc(NC(=O)c4ccc(C(C)(C)C)cc4)cc3s2)c1C | 6.55
Cc1ccccc1N1CCN(CC(O)COc2cc(Cl)c(Cl)cc2C(=O)CCc2ccccc2)CC1 (stereo not given) | 7.77
CCOc1ccc(N2C(=O)c3ccccc3NC2c2ccc(N(C)C)cc2)cc1 (stereo not given) | 4.60

## Task Please give measured pEC50 of the following entry: "O=C(CCc1ccccc1)c1ccccc1OCCCCN1CCCCC1"
## Result 6.27

## Task Please give measured pEC50 of the following entry: "COc1cccc(/C=N/NC(=O)C(=O)NC(C)(C)C)c1O"
## Result 3.99

## Task Please give measured pEC50 of the following entry: "CCCNC[C@H](O)c1oc2ccccc2c1CCc1ccccc1"
## Result 5.98

## Task Please give measured pEC50 of the following entry: O=C(CCc1ccccc1)c1ccc(OCC(O)CNCCC(c2ccccc2)c2ccccc2)cc1 (stereo not given)
## Result 6.30

## Task Please give measured pEC50 of the following entry: O=C(CCc1ccccc1)c1ccc(OCC(O)CN2CCN(c3ccc(F)cc3)CC2)cc1 (stereo not given)
## Result 5.60

## Task Please give measured pEC50 of the following entry: CC(C)(C)c1ccc(N2C(=O)c3ccccc3NC2c2ccc3c(c2)OCO3)cc1 (stereo not given)
## Result 6.14

## Task Please give measured pEC50 of the following entry: "O=C(CCc1ccccc1)c1ccccc1OCCCCN1CCN(c2ccc(F)cc2)CC1"
## Result 6.72

## Task Please give measured pEC50 of the following entry: O=C(CCc1cccc2ccccc12)c1ccccc1OCC(O)CN1CCC(O)(c2ccccc2)CC1 (stereo not given)
## Result 7.12

## Task Please give measured pEC50 of the following entry: CC(=O)c1ccccc1OCC(O)CN1CCCCC1 (stereo not given)
## Result 4.50

## Task Please give measured pEC50 of the following entry: O=C(CCc1ccccc1)c1ccccc1OCC(O)CN1CCN(C(=O)c2ccccc2)CC1 (stereo not given)
## Result 6.89

## Task Please give measured pEC50 of the following entry: CC(=O)c1ccc(OCC(O)CNCCC(c2ccccc2)c2ccccc2)cc1 (stereo not given)
## Result 6.75

## Task Please give measured pEC50 of the following entry: "C=CCn1c(SCCCC)nc2c(c1=O)C1(CCCC1)Cc1ccccc1-2"
## Result 5.46

## Task Please give measured pEC50 of the following entry: O=C(CCc1ccccc1)c1ccccc1OCC(O)CN1CCC(O)(c2ccccc2)CC1 (stereo not given)
## Result 7.24

## Task Please give measured pEC50 of the following entry: CC(C)C(NCC(O)COc1ccccc1C(=O)CCc1ccccc1)c1ccccc1 (stereo not given)
## Result 6.68

## Task Please give measured pEC50 of the following entry: CCCNCC(O)c1oc2ccccc2c1CC (stereo not given)
## Result 4.94
